biological target: LILRA1 (human (not printed on the sheet), UniProt O75019); assay: LILR reporter cells on coated antibody, GFP positive (%)
Sequence (O75019 17-461 limits assumed): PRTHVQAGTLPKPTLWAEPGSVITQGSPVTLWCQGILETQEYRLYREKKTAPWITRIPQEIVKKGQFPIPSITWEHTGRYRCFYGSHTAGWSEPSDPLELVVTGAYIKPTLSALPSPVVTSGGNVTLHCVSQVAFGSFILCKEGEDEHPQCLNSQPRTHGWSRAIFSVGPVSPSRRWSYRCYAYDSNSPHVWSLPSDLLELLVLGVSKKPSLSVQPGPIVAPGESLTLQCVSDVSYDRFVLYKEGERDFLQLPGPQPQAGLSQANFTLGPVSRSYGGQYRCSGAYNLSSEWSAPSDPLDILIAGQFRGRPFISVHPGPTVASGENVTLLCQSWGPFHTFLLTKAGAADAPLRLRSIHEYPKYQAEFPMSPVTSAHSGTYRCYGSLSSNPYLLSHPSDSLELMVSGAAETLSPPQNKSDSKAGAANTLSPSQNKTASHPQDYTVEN
REPORTED METRIC: binding result

h193 antibody No. 31 (h193-H6 / h193-K1) (antibody, V domains shown) VH: EVQLVESGGGLVQPGGSLRLSCAASGFSLSSSYWISWVRQAPGKGLEWIGSIDSGSVGITYYATSAKGRFTISRDNSKNTLYLQMNSLRAEDTAVYYCARHGDNWALDLWGQGTLVTVSS VL: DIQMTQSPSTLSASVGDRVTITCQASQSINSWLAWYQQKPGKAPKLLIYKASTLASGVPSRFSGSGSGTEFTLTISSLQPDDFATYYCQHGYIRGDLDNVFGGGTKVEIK; no binding
h193 antibody No. 23 (h193-H4 / h193-K1) (antibody, V domains shown) VH: EVQLVESGGGLVQPGGSLRLSCAASGFSLSSSYWISWVRQAPGKGLEWVSSIDSGSVGITYYATWAKGRFTISRDNSKNTLYLQMNSLRAEDTAVYYCARHGDNWALDLWGQGTLVTVSS VL: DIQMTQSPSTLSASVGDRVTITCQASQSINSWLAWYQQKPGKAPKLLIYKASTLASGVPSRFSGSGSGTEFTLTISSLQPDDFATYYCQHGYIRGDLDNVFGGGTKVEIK; no binding
